systemTested: human PRS protein (His-Avi-hEPRS (998-1512)) (Homo sapiens)
Construct: to construct His-Avi-hEPRS (998-1512) expression plasmid; His tag (N); Avi tag (N); TEV cleavage site (ENLYFQG, then S; inferred from the forward primer hEPRS-TEV-NheF) (N); made in house; host or cells: E. coli BL21(DE3)
Sequence (P07814 998-1512 limits assumed): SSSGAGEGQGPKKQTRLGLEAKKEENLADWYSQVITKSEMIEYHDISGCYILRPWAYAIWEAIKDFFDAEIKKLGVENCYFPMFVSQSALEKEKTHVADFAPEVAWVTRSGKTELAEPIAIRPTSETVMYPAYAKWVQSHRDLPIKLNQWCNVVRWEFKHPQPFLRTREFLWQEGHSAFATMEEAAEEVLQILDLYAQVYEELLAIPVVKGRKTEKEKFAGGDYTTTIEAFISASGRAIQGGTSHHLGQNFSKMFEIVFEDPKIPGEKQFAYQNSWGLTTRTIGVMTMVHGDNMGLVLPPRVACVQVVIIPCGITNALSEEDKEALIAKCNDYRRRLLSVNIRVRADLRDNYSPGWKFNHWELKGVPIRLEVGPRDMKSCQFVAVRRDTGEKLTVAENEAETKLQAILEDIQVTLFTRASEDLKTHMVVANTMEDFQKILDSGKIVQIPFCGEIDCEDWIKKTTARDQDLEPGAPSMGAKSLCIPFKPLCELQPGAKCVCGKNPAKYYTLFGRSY
assayInfo: PRS inhibitory activity ([32P]pyrophosphate exchange enzyme assay)
Type: biochemical
cond: 300 nM test compound; read-out: inhibitory rate (%) of PRS
Overview of recorded inhibition at 0.3 µM for various compounds
Answer format: numeric, % implied, no suffix.

As a guide, the following entries are already answered.
molecularString: Cn1cc(-c2cc(F)cc(CNC(=O)c3ncnc4nc(C5CCC5)[nH]c34)c2)cn1
systemTested: human PRS protein (His-Avi-hEPRS (998-1512)) (Homo sapiens)
inhibition at 0.3 µM, %: 99

molecularString: Cc1cc(N2CC[C@@](C#N)(C3CC3)C2=O)cc(C(=O)NCc2cc(Cl)cc(-c3cnn(C)c3)c2)n1
systemTested: human PRS protein (His-Avi-hEPRS (998-1512)) (Homo sapiens)
inhibition at 0.3 µM, %: 101

molecularString: Cn1cc(-c2cc(F)cc(CNC(=O)c3cc(N4CC[C@@](C#N)(C5CC5)C4=O)ccn3)c2)cn1
systemTested: human PRS protein (His-Avi-hEPRS (998-1512)) (Homo sapiens)
inhibition at 0.3 µM, %: 95

molecularString: Cc1cn(-c2cc(F)cc(CNC(=O)c3ncnc4nc(C5CCCC5)n(C)c34)c2)nc1C
systemTested: human PRS protein (His-Avi-hEPRS (998-1512)) (Homo sapiens)
inhibition at 0.3 µM, %: 102

molecularString: Cc1cc(N2C(=O)[C@](C#N)(C3CC3)C[C@@H]2C)cc(C(=O)NCc2cc(F)cc(-c3cnn(C)c3)c2)n1
systemTested: human PRS protein (His-Avi-hEPRS (998-1512)) (Homo sapiens)
inhibition at 0.3 µM, %: 99

Noted for Cn1cc(-c2cc(F)cc(CNC(=O)c3nccc4nc(C5CCCC5)n(C)c34)c2)cn1 : its inhibition at 0.3 µM reads 101

Noted for Cn1ncc(-c2cc(F)cc(CNC(=O)c3ncnc4nc(C5CCCC5)[nH]c34)c2)n1 : its inhibition at 0.3 µM reads 100

---

Overview of recorded inhibition at 0.3 µM for various compounds
systemTested: human PRS protein (His-Avi-hEPRS (998-1512)) (Homo sapiens)
Construct: to construct His-Avi-hEPRS (998-1512) expression plasmid; His tag (N); Avi tag (N); TEV cleavage site (ENLYFQG, then S; inferred from the forward primer hEPRS-TEV-NheF) (N); made in house; host or cells: E. coli BL21(DE3)
assayInfo: PRS inhibitory activity ([32P]pyrophosphate exchange enzyme assay)
Format: biochemical
cond: 300 nM test compound; read-out: inhibitory rate (%) of PRS
Form field: result (number plus unit)

As a guide, the following entries are already answered.
compound: Cn1cc(NC(=O)c2cccc(CNC(=O)c3nccc4nc(C5CCCC5)[nH]c34)c2)cn1
val: 99%
--
compound: Cn1cc(-c2cc(F)cc(CNC(=O)c3nccc4nc(C5CCCC5)n(CC#N)c34)c2)cn1
val: 101%
--
compound: Cn1cc(-c2cc(F)c(F)c(CNC(=O)c3nccc4nc(C5CCCC5)[nH]c34)c2)cn1
val: 101%
--
compound: Cc1cc(N2CCC(CO)(C3CC3)C2=O)cc(C(=O)NCc2cc(F)cc(-c3cnn(C)c3)c2)n1 (centres unmarked)
val: 69%

Noted for Cn1cc(-c2cc(F)cc(CNC(=O)c3nccc4nc(C5CCCC5)n(CC(=O)O)c34)c2)cn1 : its inhibition at 0.3 µM reads 101%
